Each entry below lists one item and its recorded inhibition value.
test.target: Tyrosine-protein kinase ABL1 (Homo sapiens) (UniProt P00519)
Sequence (P00519 whole entry): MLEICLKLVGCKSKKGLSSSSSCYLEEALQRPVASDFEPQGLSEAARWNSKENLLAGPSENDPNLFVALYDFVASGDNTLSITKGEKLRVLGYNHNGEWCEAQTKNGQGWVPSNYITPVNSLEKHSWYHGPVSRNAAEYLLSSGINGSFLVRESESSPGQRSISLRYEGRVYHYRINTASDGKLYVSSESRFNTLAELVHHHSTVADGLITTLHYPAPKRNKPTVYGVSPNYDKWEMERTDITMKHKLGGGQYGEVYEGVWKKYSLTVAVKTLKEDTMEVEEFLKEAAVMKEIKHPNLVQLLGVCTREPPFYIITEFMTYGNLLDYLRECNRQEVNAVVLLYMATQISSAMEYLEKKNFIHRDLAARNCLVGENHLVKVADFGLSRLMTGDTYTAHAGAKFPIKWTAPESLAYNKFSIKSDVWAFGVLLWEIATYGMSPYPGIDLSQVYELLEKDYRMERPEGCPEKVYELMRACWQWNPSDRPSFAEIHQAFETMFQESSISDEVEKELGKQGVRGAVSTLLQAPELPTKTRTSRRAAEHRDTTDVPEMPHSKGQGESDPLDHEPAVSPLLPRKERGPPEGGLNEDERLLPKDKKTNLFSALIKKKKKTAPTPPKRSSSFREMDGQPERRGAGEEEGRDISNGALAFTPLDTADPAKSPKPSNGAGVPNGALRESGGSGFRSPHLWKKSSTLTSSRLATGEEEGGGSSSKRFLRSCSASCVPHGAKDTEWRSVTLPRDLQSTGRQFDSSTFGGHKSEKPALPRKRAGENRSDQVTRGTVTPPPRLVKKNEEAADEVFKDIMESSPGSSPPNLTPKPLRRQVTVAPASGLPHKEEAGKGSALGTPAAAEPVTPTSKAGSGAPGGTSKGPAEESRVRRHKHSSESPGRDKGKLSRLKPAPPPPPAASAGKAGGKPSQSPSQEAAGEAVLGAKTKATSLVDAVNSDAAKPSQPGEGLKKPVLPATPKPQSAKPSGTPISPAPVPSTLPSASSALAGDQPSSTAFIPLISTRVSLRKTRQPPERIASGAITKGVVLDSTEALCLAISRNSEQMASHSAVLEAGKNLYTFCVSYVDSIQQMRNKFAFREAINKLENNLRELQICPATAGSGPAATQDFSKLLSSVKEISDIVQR
method.description: Inhibition of human Abl1 using myelin basic protein as substrate at 1 uM measured after 20 mins at 30 degC by liquid scintillation counting method in presence of [gamma-32P]-ATP
Quick note: give the figure in %, leave out the unit.

Consider the reported inhibition for these compounds:
[[record]]
compound = "Clc1ccc(Nc2nnc(Cc3ccncc3)c3ccccc23)cc1"
experimental_endpoint = "inhibition"
units_of_measure = "%"
test_result = 25

[[record]]
compound = "O=c1c2cc3c(cc2ncn1Cc1ccc(Br)cc1)OCO3"
experimental_endpoint = "inhibition"
units_of_measure = "%"
test_result = 0


Documented inhibition of O=c1c2cc3c(cc2ncn1CC(O)c1cccc(Cl)c1)OCCO3 (stereo not given) : 1

Documented inhibition of O=C(Cn1cnc2cc3c(cc2c1=O)OCCO3)c1cccc(Br)c1 : 0

Documented inhibition of O=c1c2cc3c(cc2ncn1Cc1ccc(-c2ccccc2)cc1)OCO3 : 4

###

test.target: UniProtKB P09619
Sequence (P09619 whole entry): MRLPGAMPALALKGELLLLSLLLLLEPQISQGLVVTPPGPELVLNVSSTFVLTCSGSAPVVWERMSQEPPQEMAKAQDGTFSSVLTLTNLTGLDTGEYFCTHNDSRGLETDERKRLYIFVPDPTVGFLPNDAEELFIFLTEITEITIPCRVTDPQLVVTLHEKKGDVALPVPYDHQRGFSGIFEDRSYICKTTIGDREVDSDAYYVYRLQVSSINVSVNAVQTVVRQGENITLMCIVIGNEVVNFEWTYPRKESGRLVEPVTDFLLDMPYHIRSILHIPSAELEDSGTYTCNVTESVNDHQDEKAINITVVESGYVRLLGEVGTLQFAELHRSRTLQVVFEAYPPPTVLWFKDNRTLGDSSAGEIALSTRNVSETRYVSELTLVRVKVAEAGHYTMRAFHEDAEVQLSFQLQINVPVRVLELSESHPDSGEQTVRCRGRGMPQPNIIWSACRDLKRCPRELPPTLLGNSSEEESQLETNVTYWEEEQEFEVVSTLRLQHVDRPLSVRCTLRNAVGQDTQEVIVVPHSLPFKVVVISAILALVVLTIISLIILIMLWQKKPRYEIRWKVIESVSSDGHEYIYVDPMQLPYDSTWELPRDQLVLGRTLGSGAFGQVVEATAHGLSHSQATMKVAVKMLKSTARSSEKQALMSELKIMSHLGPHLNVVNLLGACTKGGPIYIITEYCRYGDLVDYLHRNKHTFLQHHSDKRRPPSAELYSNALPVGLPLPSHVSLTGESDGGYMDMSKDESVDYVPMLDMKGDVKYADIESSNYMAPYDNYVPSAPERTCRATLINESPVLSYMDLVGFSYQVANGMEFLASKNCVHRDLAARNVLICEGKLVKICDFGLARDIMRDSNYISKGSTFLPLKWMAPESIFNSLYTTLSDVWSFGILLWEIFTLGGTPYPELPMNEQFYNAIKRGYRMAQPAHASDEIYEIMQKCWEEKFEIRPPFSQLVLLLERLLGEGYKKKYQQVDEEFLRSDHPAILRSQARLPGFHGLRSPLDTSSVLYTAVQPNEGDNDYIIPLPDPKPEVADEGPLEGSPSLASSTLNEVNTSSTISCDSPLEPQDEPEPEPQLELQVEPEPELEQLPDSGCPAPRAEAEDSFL
method.description: Inhibition of human PDGFR-beta at 1 uM measured after 20 mins at 30 degC by liquid scintillation counting method in presence of [gamma-32P]-ATP
experimental.endpoint: inhibition (%)
Quick note: give the figure in %, leave out the unit.

Consider the reported inhibition for these compounds:
[[record]]
smiles_entry = "O=c1c2cc3c(cc2ncn1Cc1ccc(-c2ccccc2)cc1)OCO3"
units_of_measure = "%"
test_result = 4

[[record]]
smiles_entry = "COc1cc2ncn(Cc3cccnc3Br)c(=O)c2cc1OC"
units_of_measure = "%"
test_result = 37

[[record]]
smiles_entry = "O=c1c2cc3c(cc2ncn1Cc1ccc(Br)cc1)OCO3"
units_of_measure = "%"
test_result = 45

[[record]]
smiles_entry = "COc1cc2ncn(Cc3cccc(-c4ccccc4)c3)c(=O)c2cc1OC"
units_of_measure = "%"
test_result = 4


Next up:
Documented inhibition of O=C(Cn1cnc2cc3c(cc2c1=O)OCCO3)c1cccc(Br)c1 : 4

###

test.target: Vascular endothelial growth factor receptor 2 (Homo sapiens)
method.description: Inhibition of human KDR using […] as substrate at 1 uM measured after 20 mins at 30 degC by liquid scintillation counting method in presence of [gamma-32P]-ATP
Each entry below lists one item and its recorded inhibition value.
Quick note: give the figure in %, leave out the unit.

[[record]]
compound = "O=C(Cn1cnc2cc3c(cc2c1=O)OCCO3)c1ccc(Br)cc1"
test_result = 35


Documented inhibition of O=c1c2cc3c(cc2ncn1Cc1cccc(-c2ccccc2)c1)OCO3 : 35

Documented inhibition of O=c1c2cc3c(cc2ncn1Cc1ccc(-c2ccccc2)cc1)OCCO3 : 45

Documented inhibition of COc1cc2ncn(CC(O)c3ccc(Br)cc3)c(=O)c2cc1OC (stereo not given) : 44

Documented inhibition of O=C(Cn1cnc2cc3c(cc2c1=O)OCCO3)c1cccc(Br)c1 : 36

Documented inhibition of COc1cc2ncn(Cc3cccc(Br)c3)c(=O)c2cc1OC : 31

Documented inhibition of COc1cc2ncn(CC(=O)c3ccc(Br)cc3)c(=O)c2cc1OC : 53

Documented inhibition of COc1cc2ncn(Cc3cccnc3Br)c(=O)c2cc1OC : 24

Documented inhibition of COc1cc2ncn(Cc3ccc(Br)cc3)c(=O)c2cc1OC : 25

Documented inhibition of O=c1c2cc3c(cc2ncn1Cc1ccc(-c2ccccc2)cc1)OCO3 : 25

Documented inhibition of O=c1c2cc3c(cc2ncn1Cc1ccc(Br)cc1)OCCO3 : 12

Documented inhibition of O=c1c2cc3c(cc2ncn1Cc1ccc(Br)cc1)OCO3 : 27

Documented inhibition of O=c1c2cc3c(cc2ncn1CC(O)c1cccc(Cl)c1)OCCO3 (stereo not given) : 26

Documented inhibition of O=c1c2cc3c(cc2ncn1Cc1cccc(Br)c1)OCCO3 : 12

Documented inhibition of COc1cc2ncn(Cc3cccc(-c4ccccc4)c3)c(=O)c2cc1OC : 33
